tested.system: human GPR40 receptor (Homo sapiens (Human), UniProt O14842)
Sequence (O14842 whole entry): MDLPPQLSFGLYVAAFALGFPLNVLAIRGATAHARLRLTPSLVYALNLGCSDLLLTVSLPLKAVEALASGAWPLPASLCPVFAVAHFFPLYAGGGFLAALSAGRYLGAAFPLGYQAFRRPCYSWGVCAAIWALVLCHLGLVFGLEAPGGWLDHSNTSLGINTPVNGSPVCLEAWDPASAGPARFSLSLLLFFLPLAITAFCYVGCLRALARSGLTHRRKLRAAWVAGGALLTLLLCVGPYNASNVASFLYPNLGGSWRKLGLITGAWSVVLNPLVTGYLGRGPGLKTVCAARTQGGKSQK
assay.method.text: IP1 accumulation measurements using the IPOne assay system
Type: cell-based
reported.conditions: 1321N1 cells stably expressing human GPR40, 1 h stimulation; read-out: EC50
Experimental: IP1 accumulation measurements using the IPOne assay system—1321N1 cells stably expressing human GPR40 receptor (Euroscreen, Belgium) are seeded 24 h before the assay in white 384-well plates in culture medium containing 10% FCS, 1% Na-Pyruvate and 400 μg/mL G418. IP1 is assayed according to the manufacturer's description (Cisbio Bioassays, France). […] After an incubation time of 1 h at room temperature plates are measured using an EnVision™, Perkin Elmer. […]
Listed compounds paired with reported EC50
Give the value in nM but do not write nM after it.

Below, each entry is followed by its recorded EC50 result.
cpd.smiles	EC50 (nM)
Cc1cc(C(N)=O)cc(C)c1-c1ccc(F)c2c1CC[C@H]2Nc1ccc([C@H]2C[C@@H]2C(=O)O)nc1	30
COc1ccc(-c2cccc3c2CC[C@H]3Nc2ccc([C@H]3C[C@@H]3C(=O)O)nc2)cc1F	100

Please fill in: EC50 reported for Cc1cnc(-c2cc(C)c(-c3ccc(F)c4c3CC[C@H]4Nc3ccc([C@H]4C[C@@H]4C(=O)O)nc3)c(C)c2)nc1 = 2

Please fill in: EC50 reported for Cc1cc(OC2CCOCC2)cc(C)c1-c1ccc(F)c2c1CC[C@H]2Nc1ccc([C@H]2C[C@@H]2C(=O)O)nc1 = 11

Please fill in: EC50 reported for O=C(O)[C@H]1C[C@@H]1c1ccc(N[C@@H]2CCc3c(-c4c(Cl)cccc4Cl)ccc(F)c32)cn1 = 4

Please fill in: EC50 reported for Cc1cc(OCC(C)(C)C#N)cc(C)c1-c1ccc(F)c2c1CC[C@H]2Nc1ccc([C@H]2C[C@@H]2C(=O)O)nc1 = 10
